Taken from PubChem BioAssay AID1159580.

# Protocol Description: chemical genetic growth profiling, strain panel (AID 1159580);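 note: tested at 20 µM; growth read once vehicle control cultures reached saturation at 30 °C; lower values mean less growth of the strain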
# Assay Setup: S. cerevisiae deletion strains, growth OD, locus YDL074C, strain BRE1
Out of some 5,500 compounds screened, about 2,000 (36%) were called active. Another 18% or so got no clear call; they are omitted. Cut-off read from the data, not from the text of the source: active = normalized growth mostly below about 0.91 (no sharp cut-off); inconclusive = no clear call, values can overlap the other calls; inactive = mostly above about 0.92. The list shows a part of the results.
Hi there, use one of these labels in your reply, thanks! True (active), False (inactive)

Exam item: Please state the recorded outcome for this compound: CC(COc1ccccc1)N(CCCl)Cc1ccccc1 (configuration not stated)
Marked response: False

Exam item: Please state the recorded outcome for this compound: O=C(O)c1cc(=O)c(O)c2c(O)c(O)ccc2c1
Marked response: False

Exam item: Please state the recorded outcome for this compound: NCCCCN=C(N)N
Marked response: False
